- System: HT-29
- experiment-notes: Induction of apoptosis in human HT-29 cells expressing BRAF mutant assessed as depolarization of mitochondrial membrane after 24 hrs by flow cytometry
- Type: functional, cell-based
- measurement-conditions: Homo sapiens, HT-29, 24 h; read-out: IC50
quantity: IC50 (µM)

Cc1ccccc1Nc1ncnc2c1sc1ccccc12: 127
Cc1ccccc1Nc1ncnc2sc3ccccc3c12: 120
COc1ccc(Nc2ncnc3sc4ccccc4c23)cc1: 117
c1ccc(CNc2ncnc3sc4ccccc4c23)cc1: 126

====

- System: HCT-116
- experiment-notes: Induction of apoptosis in human HCT116 cells expressing KRAS mutant assessed as depolarization of mitochondrial membrane after 24 hrs by flow cytometry
- Assay type: functional, cell-based
- measurement-conditions: Homo sapiens, HCT-116, 24 h; read-out: IC50
quantity: IC50 (µM)

Cc1ccccc1Nc1ncnc2sc3ccccc3c12: 101
COc1ccc(Nc2ncnc3sc4ccccc4c23)cc1: 92
Cc1ccccc1Nc1ncnc2c1sc1ccccc12: 121

These entries and their values trace back to ChEMBL document CHEMBL2157913.
